The measured values listed here are drawn from the supplement of paper PMC6897291.

Item-by-item account of growth inhibition by drug plus 177Lu-lilotomab satetraxetan
# Tested on: RIVA
# assay_name: growth inhibition by drug plus 177Lu-lilotomab satetraxetan (1 - RLU/untreated control) (fraction); higher = stronger inhibition
# experimental_setup: 10 nM; time (day): 5; 177Lu-lilotomab satetraxetan 0.5 ug/ml
experimental_endpoint: growth inhibition by drug plus 177Lu-lilotomab satetraxetan

INSERT INTO assay_data (compound, target_desc, quantitative_readout) VALUES
  ('FC(F)c1nc2ccccc2n1-c1nc(N2CCOCC2)nc(N2CCOCC2)n1', 'RIVA', 0.568),
  ('O=C(O)Cc1cccc(OCCCN(Cc2cccc(C(F)(F)F)c2Cl)CC(c2ccccc2)c2ccccc2)c1', 'RIVA', 0.678),
  ('COc1ccc(CNC(=O)Nc2ncc([N+](=O)[O-])s2)cc1', 'RIVA', 0.599),
  ('O=C(CCCCCCC(=O)Nc1cccnc1)NO [Pyroxamide]', 'RIVA', 0.464),
  ('O=C(Nc1ccc(OC(F)(F)F)cc1)c1sccc1NCc1ccnc2ccccc12', 'RIVA', 0.593),
  ('Cn1cc(-c2ccc3nnc(Sc4ccc5ncccc5c4)n3n2)cn1', 'RIVA', 0.638);
